// provenance: patent US20150056210A1

Tested Target: T1, Spacer-GST (human)
T1 construct: also called recombinant Spacer-ADAMTS-5-GST protein
T1 sequence (chain, as listed by the source limits assumed): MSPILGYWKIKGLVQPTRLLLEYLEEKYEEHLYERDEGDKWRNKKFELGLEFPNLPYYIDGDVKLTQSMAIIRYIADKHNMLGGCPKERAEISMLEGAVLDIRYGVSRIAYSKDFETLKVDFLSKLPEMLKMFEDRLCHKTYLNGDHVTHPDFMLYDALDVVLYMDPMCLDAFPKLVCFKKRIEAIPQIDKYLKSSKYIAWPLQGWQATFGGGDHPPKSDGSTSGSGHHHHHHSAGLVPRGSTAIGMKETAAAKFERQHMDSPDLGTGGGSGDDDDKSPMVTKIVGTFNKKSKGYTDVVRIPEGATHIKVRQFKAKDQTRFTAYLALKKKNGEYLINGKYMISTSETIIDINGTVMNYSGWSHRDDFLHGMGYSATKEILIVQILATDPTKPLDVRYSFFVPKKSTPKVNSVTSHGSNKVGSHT
Method: ELISA, Spacer-GST coated at 10 µg/mL, scFv in solution, anti-V5 detection
Reported Endpoint: binding result

Binder	Reported
CRB0092 scFv (scFv, VP16 fusion in the yeast selection; also called clone C21) scFv: QSVVTQPPSVSGAPGQRVTISCTGSSSNIGAGYDVHWYQQLPGTAPKLLIYGNDNRPSGVPDRFSGSKSGTSASLAITGLQAEDEADYYCQSYDNSLSGYAVFGGGTQLTVLSGGSTSGSGKPGSGEGSSGTQVQLVESGGGLVQPGGSLRLSCAASGFRFSSHDMHWVRQVPGKGLEWVSRIGTVGDTYYADSVKGRFTISRDNSKNTLFLQMNSLGAEDTAVYYCARDGTRYCSRTSCHSGYYYYGMDVWGQGTTVTVSS	binds
CRB0094 scFv (scFv, VP16 fusion in the yeast selection; also called clone 48B) scFv: QSVLTQPPSASGSPGQSVTISCTGTSSDVGGYNYVSWYQQHPGKAPKLLIYDVSNRPSGVSSRFSGSKSGNSASLTISGLQAEDEADYYCSSYTRRSTLEFGGGTKLTVLSGGSTSGSGKPGSGEGSSGTQVQLQQWGAGLLKPSGTLSLTCAVYGGSFSGYYWSWIRQPPGKGLEWIGEINHSGSTNYNPSLKSRVTISVDTSKNQFSLKLSSVTAADTAVYYCARTIWSTRHDFWSGYYSSNWFDPWGQGTLVTVSS	binds
